src = ChEMBL document CHEMBL1138976

Target: Protein Tat (Human immunodeficiency virus type 1 group M subtype B (isolate PCV12)(HIV-1)) (UniProt P04326)
Sequence (whole entry): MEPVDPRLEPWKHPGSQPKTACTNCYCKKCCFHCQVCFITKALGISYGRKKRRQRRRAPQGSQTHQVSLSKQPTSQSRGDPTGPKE
Assay: Inhibition of Tat activity in HeLa cells transfected with Tat-Luc at 100 uM
Assay type: functional, cell-based
measure: inhibition (%)
Please state the figure in %; there is no need to write the unit.

compound | inhibition / %
C=CCn1nc(Cc2ccc(OC)cc2)c2ccccc2c1=O | 2.9
Cc1ccc2c(c1)/C(=C/c1ccc(Cl)cc1)OC2=O | 91.8
O=c1c2ccccc2c(Cc2ccc(Cl)cc2)nn1-c1ccc([N+](=O)[O-])cc1 | 29.6
O=C1O/C(=C\c2ccccc2Cl)c2ccccc21 (stereo in doubt; 1b) | 76.8
O=C1O/C(=C\c2ccc3c(c2)OCO3)c2ccccc21 | 87.2

Value lookup for inhibition; key = `Cn1nc(Cc2ccc3c(c2)OCO3)c2ccccc2c1=O`
25.5

Next entry: OC1(Cc2ccccc2Cl)c2cc(Cl)c(Cl)cc2C2=NCCN21 (stereo not drawn)
99.6
